Values were extracted from PubChem BioAssay AID1963858.

viability, T/C values by entry
System: HOP-62 multicell spheroids with HUVEC/MSC, viability
assay: Anticancer human tumor HOP-62 cell line growth inhibition [KRAS2];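 further: viability read after a week of compound exposure; 100% = DMSO vehicle-treated spheroids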
protocol conditions: second compound 0.1 µM; first compound 0.316 µM; active compounds read low
Description: Multicellular complex tumor spheroid response to RAS pathway inhibitors in combination with a targeted agents in patient-derived cell lines with oncogenic KRAS variants from multiple cancer types A high-throughput screen of multi-cell type tumor spheroids was designed to identify active combinations of targeted small molecules and KRAS pathway inhibitors. […] Compounds. […] If the clinical Cmax for an agent had not been determined, the highest concentration tested was 10 microM. […]
// return numeric value only (unit: %, not printed)

Problem: Which viability, T/C reading was recorded for the compound CC(=O)OC12COC1CC(O)C1(C)C(=O)C(O)C3=C(C)C(OC(=O)C(O)C(NC(=O)OC(C)(C)C)c4ccccc4)CC(O)(C(OC(=O)c4ccccc4)C21)C3(C)C (configuration not stated) + C=CC(=O)N1CCN(c2nc(OCC3CCCN3C)nc3c2CCN(c2cccc4cccc(C)c24)C3)CC1CC#N ?
Solution: 20.1

Problem: And the next one, CC(C)NCC(C(=O)N1CCN(c2ncnc3c2C(C)CC3O)CC1)c1ccc(Cl)cc1 (configuration not stated) + C=CC(=O)N1CCN(c2nc(=O)n(-c3c(C)ccnc3C(C)C)c3nc(-c4c(O)cccc4F)c(F)cc23)C(C)C1 ?
Solution: 22.2

----------
Test system: HOP-62 multicell spheroids with HUVEC/MSC, viability
assay: Anticancer human tumor HOP-62 cell line growth inhibition [KRAS2];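 further: viability read after a week of compound exposure; 100% = DMSO vehicle-treated spheroids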
protocol conditions: second compound 1 µM; first compound 0.1 µM; active compounds read low
Rule: viability, T/C below 60% gives Fulfilled, anything at or above gives Not fulfilled.

CC1OCC2(CCN(c3cnc(Sc4ccnc(N)c4Cl)c(N)n3)CC2)C1N (stereo not given) + C=CC(=O)N1CCN(c2nc(=O)n(-c3c(C)ccnc3C(C)C)c3nc(-c4c(O)cccc4F)c(F)cc23)C(C)C1 = Fulfilled
CN(C)C/C=C/C(=O)Nc1cc2c(Nc3ccc(F)c(Cl)c3)ncnc2cc1O[C@H]1CCOC1 + C=CC(=O)N1CCN(c2nc(OCC3CCCN3C)nc3c2CCN(c2cccc4cccc(C)c24)C3)CC1CC#N = Fulfilled
COC(=O)c1ccc2c(C(=Nc3ccc(N(C)C(=O)CN4CCN(C)CC4)cc3)c3ccccc3)c(O)[nH]c2c1 + CC1OCC2(CCN(c3cnc(Sc4ccnc(N)c4Cl)c(N)n3)CC2)C1N = Fulfilled
COc1cc(Nc2ncc3c(n2)-c2ccc(Cl)cc2C(c2c(F)cccc2OC)=NC3)ccc1C(=O)O + CC1OCC2(CCN(c3cnc(Sc4ccnc(N)c4Cl)c(N)n3)CC2)C1N = Fulfilled
CC(=O)OC12COC1CC(O)C1(C)C(=O)C(O)C3=C(C)C(OC(=O)C(O)C(NC(=O)OC(C)(C)C)c4ccccc4)CC(O)(C(OC(=O)c4ccccc4)C21)C3(C)C (stereo not given) + C=CC(=O)N1CCN(c2nc(OCC3CCCN3C)nc3c2CCN(c2cccc4cccc(C)c24)C3)CC1CC#N = Fulfilled
Cn1nccc1Nc1nccc(-c2cc3c(s2)C(C)(C)N(CCN2CCOCC2)C3=O)n1 + CNCc1ccccc1-c1csc(C(C)Nc2nc(C)nc3cc(OC)c(OC)cc23)c1 = Not fulfilled
COc1cc2nccc(Oc3ccc(NC(=O)C4(C(=O)Nc5ccc(F)cc5)CC4)cc3)c2cc1OC + C=CC(=O)N1CCN(c2nc(=O)n(-c3c(C)ccnc3C(C)C)c3nc(-c4c(O)cccc4F)c(F)cc23)C(C)C1 = Not fulfilled
CCNC(=O)CC1N=C(c2ccc(Cl)cc2)c2cc(OC)ccc2-n2c(C)nnc21 (stereo not given) + C=CC(=O)N1CCN(c2nc(OCC3CCCN3C)nc3c2CCN(c2cccc4cccc(C)c24)C3)CC1CC#N = Fulfilled
COc1cc(Nc2ncc3c(n2)-c2ccc(Cl)cc2C(c2c(F)cccc2OC)=NC3)ccc1C(=O)O + C=CC(=O)N1CCN(c2nc(=O)n(-c3c(C)ccnc3C(C)C)c3nc(-c4c(O)cccc4F)c(F)cc23)C(C)C1 = Fulfilled
COC(=O)c1ccc2c(C(=Nc3ccc(N(C)C(=O)CN4CCN(C)CC4)cc3)c3ccccc3)c(O)[nH]c2c1 + COc1cc2nc(C)nc(NC(C)c3cc(N)cc(C(F)(F)F)c3)c2cc1OC1CCOC1 = Fulfilled

Problem: Below 60% on viability, T/C? Entry CCN1CCN(Cc2ccc(Nc3ncc(F)c(-c4cc(F)c5nc(C)n(C(C)C)c5c4)n3)nc2)CC1 + COc1cc2nc(C)nc(NC(C)c3cc(N)cc(C(F)(F)F)c3)c2cc1OC1CCOC1
Solution: Not fulfilled

Problem: And the next one, COc1cc2nccc(Oc3ccc(NC(=O)C4(C(=O)Nc5ccc(F)cc5)CC4)cc3)c2cc1OC + COc1cc2nc(C)nc(NC(C)c3cc(N)cc(C(F)(F)F)c3)c2cc1OC1CCOC1 ?
Solution: Not fulfilled
